Origin of the recorded values: patent US20260116921A1

# STUDY SYSTEM: T1, IL-23R (human, UniProt Q5VWK5 24-629)
# T1 sequence (looked up): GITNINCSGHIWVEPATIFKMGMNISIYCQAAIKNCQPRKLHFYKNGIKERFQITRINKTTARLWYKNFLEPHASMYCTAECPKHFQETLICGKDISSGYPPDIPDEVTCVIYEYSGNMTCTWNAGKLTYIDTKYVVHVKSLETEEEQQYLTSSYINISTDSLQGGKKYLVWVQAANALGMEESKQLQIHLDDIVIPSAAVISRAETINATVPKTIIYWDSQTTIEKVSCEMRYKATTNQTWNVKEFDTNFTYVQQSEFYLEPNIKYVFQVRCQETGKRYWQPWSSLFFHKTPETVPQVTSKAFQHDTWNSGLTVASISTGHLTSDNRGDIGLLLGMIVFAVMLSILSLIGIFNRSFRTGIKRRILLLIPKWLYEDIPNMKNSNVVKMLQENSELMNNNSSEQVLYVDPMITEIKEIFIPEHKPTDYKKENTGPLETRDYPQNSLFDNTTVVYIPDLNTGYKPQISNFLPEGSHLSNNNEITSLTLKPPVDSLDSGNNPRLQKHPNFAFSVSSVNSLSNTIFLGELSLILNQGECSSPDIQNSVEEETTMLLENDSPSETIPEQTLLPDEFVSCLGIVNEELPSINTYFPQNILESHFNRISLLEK
# TEST NAME: cell-based or functional assay
Bridge positions count the residues as written; N and C are the ends. Square brackets hold non-standard residues; d marks the D form. Trp(4-OMe) = COc1cccc2[nH]cc(C[C@H](N)C(=O)O)c12; Trp(5-Cl) = N[C@@H](Cc1c[nH]c2ccc(Cl)cc12)C(=O)O; AEF = NCCOc1ccc(C[C@H](N)C(=O)O)cc1; αMeL = CC(C)C[C@](C)(N)C(=O)O; Pen = CC(C)(S)[C@H](N)C(=O)O
Recorded pStat3 HTRF (nM) IC50 for the following binders

>  <BINDER>
Ac-[Pen]NTWQ[Pen][AEF][Trp(4-OMe)][αMeL]K(Ac)NN-NH2 (disulfide 1-6; SMILES COc1cccc2[nH]cc(C[C@H](NC(=O)[C@H](Cc3ccc(OCCN)cc3)NC(=O)[C@H]3NC(=O)[C@H](CCC(N)=O)NC(=O)[C@H](Cc4c[nH]c5ccccc45)NC(=O)[C@H]([C@@H](C)O)NC(=O)[C@H](CC(N)=O)NC(=O)[C@@H](NC(C)=O)C(C)(C)SSC3(C)C)C(=O)N[C@@](C)(CC(C)C)C(=O)N[C@@H](CCCCNC(C)=O)C(=O)N[C@@H](CC(N)=O)C(=O)N[C@@H](CC(N)=O)C(N)=O)c12) [SEQ ID NO: 15]

>  <pStat3 HTRF (nM) IC50>
> 100 nM

$$$$

Exercise: Tell me the measured pStat3 HTRF (nM) IC50 of Ac-[Pen]NTWQ[Pen][AEF][Trp(5-Cl)][αMeL]K(Ac)NN-NH2 (disulfide 1-6; SMILES CC(=O)NCCCC[C@H](NC(=O)[C@](C)(CC(C)C)NC(=O)[C@H](Cc1c[nH]c2ccc(Cl)cc12)NC(=O)[C@H](Cc1ccc(OCCN)cc1)NC(=O)[C@H]1NC(=O)[C@H](CCC(N)=O)NC(=O)[C@H](Cc2c[nH]c3ccccc23)NC(=O)[C@H]([C@@H](C)O)NC(=O)[C@H](CC(N)=O)NC(=O)[C@@H](NC(C)=O)C(C)(C)SSC1(C)C)C(=O)N[C@@H](CC(N)=O)C(=O)N[C@@H](CC(N)=O)C(N)=O) [SEQ ID NO: 12] , please.
Solution: > 100 nM
